- MEASURED TARGET: K. pneumoniae PPK1 (KP) (Klebsiella pneumoniae)
ENDPOINT LABEL: IC50 (µM)
Return type: number; implicit unit µM.

Consider `O=C1OC2(c3ccccc31)c1ccc(O)c(O)c1Oc1c2ccc(O)c1O` . Its measured IC50 is 16.5

----------
- MEASURED TARGET: K. pneumoniae PPK1 (KP) (Klebsiella pneumoniae, UniProt A6TCB5)
- Sequence (A6TCB5 entry or part of it): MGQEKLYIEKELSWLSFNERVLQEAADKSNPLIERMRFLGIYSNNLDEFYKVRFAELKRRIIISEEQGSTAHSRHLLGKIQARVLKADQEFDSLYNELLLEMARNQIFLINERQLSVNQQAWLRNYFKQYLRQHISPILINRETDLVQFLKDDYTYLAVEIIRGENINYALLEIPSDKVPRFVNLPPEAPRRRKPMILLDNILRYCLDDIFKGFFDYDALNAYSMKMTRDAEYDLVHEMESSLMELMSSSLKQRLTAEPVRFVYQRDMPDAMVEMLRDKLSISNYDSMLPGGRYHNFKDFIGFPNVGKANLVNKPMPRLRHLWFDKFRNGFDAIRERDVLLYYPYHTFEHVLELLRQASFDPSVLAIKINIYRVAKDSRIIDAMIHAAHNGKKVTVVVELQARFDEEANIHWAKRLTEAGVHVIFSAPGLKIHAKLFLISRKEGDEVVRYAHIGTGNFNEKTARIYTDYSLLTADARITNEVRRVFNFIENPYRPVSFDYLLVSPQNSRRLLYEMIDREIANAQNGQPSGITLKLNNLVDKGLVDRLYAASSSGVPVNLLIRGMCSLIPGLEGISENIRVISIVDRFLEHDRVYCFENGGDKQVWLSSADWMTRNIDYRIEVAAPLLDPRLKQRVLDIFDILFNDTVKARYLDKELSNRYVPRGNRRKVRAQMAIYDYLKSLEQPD
ENDPOINT LABEL: pKi
To interpret pKi, take it as minus log10 of a concentration measured in moles per litre.

Lab note: compound `Nc1ncnc2c1ncn2[C@@H]1O[C@H](COP(=O)(O)OP(=O)(O)OP(=O)(O)O)[C@@H](O)[C@H]1O` tested on K. pneumoniae PPK1 (KP) (Klebsiella pneumoniae, UniProt A6TCB5); recorded pKi was 2.03
